Reference source for all entries: patent US20060074243A1

Molecular target: Human recombinant MMP-2 (Homo sapiens, UniProt P08253)
Construct: made in house; host or cells: MMP-2-transfected p2AHT2 cells
Sequence (P08253 110-660): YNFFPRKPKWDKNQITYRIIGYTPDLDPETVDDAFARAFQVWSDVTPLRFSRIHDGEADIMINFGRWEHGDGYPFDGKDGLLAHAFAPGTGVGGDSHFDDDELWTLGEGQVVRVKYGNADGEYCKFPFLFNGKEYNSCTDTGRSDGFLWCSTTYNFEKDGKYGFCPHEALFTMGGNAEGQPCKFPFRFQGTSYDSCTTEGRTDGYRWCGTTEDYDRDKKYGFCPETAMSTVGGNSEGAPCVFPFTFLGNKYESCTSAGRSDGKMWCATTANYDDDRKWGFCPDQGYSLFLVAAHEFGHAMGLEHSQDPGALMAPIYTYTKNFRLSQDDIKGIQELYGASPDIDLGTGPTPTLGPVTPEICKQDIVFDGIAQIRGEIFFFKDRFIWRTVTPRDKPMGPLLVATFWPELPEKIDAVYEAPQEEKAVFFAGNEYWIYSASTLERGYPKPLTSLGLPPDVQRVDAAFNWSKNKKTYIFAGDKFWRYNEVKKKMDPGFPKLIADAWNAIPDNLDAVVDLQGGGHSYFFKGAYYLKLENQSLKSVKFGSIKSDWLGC
Assay: In vitro MMP inhibition analysis (fluorogenic peptide substrate cleavage), Ki
Type: biochemical
Conditions: Table 2
endpoint-name: Ki
Just the number plus its unit, please.

Input line: Dear colleague, I am looking for the recorded Ki of the following compound: O=C(NO)C1(S(=O)(=O)c2ccc(-c3ccc(F)c(C(F)(F)F)c3)cc2)CCOCC1 [Example 84]
Output line: 10.1 nM

Input line: Looking for the measured Ki of O=C(NO)C1(S(=O)(=O)c2ccc(-c3cnc4ccccc4n3)cc2)CCOCC1 [Example 194] , can you help?
Output line: 176 nM

Input line: Give its Ki value. Item: CC(C)N(C(=O)N1CCC(C(=O)NO)(S(=O)(=O)c2ccc(-c3ccc(CCC(F)(F)C(F)(F)F)cc3)cc2)CC1)C(C)C [Example 174]
Output line: 1.24 nM

Input line: Data request, read-out Ki, for CCc1csc(Nc2ccc(-c3ccc(S(=O)(=O)C4(C(=O)NO)CCOCC4)cc3)cc2)n1 [Example 124]
Output line: 32.9 nM

Input line: Ki for O=C(NO)C1(S(=O)(=O)c2ccc(-c3ccc(CCC(F)(F)C(F)(F)F)cc3)cc2)CCS(=O)(=O)CC1 [Example 167] ?
Output line: 1.9 nM

Input line: Need Ki, item O=C(NO)C1(S(=O)(=O)c2ccc(-c3ccc(CCO)cc3)cc2)CCOCC1 [Example 98]
Output line: 0.158 nM

Input line: Returns the measured Ki for the input compound. Input: CC(C)NC(=O)c1ccc(-c2ccc(S(=O)(=O)C3(C(=O)NO)CCOCC3)cc2)nc1 [Example 204]
Output line: 4.32 nM

Input line: Entry under review: O=C(NO)C1(S(=O)(=O)c2ccc(-c3cnc(CCC(F)(F)F)cn3)cc2)CCN(C2CC2)CC1 [Example 215] . Reported Ki?
Output line: 1.15 nM

Input line: Which Ki value is on record for CCOCCOc1ccc(-c2ccc(S(=O)(=O)C3(C(=O)NO)CCN(CC)CC3)cc2)cc1 [Example 116] ?
Output line: 0.514 nM
